# Measurement Description: antimalarial activity against Dd2 strain (AID 2302);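 also: 0% = DMSO untreated growth and 100% = chloroquine plus artemisinin killed control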
# Assay Conditions: P. falciparum Dd2 in RBCs, LDH growth readout, 72 h; at 2 µM
Active and inactive are the calls of the source.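 The calls were made as follows: active = growth inhibition above 50% at the single 2 µM test dose, taken to imply half-maximal potency below 2 µM; inactive = the rest.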
// allowed return values: Y (active), N (inactive)

# input Give the logged outcome of this assay for the following compound: CCCN(CCC)CC(O)COc1ccccc1C(=O)Nc1ccccc1 (stereo not drawn)
# output Y

# input Give the logged outcome of this assay for the following compound: COc1cc(-n2c(CN3CCCC3)nc3cc(-c4ccc(Cl)cc4)sc3c2=O)ccc1OCCN1CCCC1
# output Y

# input Give the logged outcome of this assay for the following compound: Cc1cc(C(F)(F)F)cc(-n2ncc(-c3ccc(C(=O)NCCNCc4ccccc4)cc3)c2N)n1
# output N

###

Would you mind telling me the reported growth inhibition of each entry?
# Measurement Description: antimalarial activity against Dd2 strain (AID 2302);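 also: 0% = DMSO untreated growth and 100% = chloroquine plus artemisinin killed control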
# Assay Conditions: P. falciparum Dd2 in RBCs, LDH growth readout, 72 h; at 2 µM; hits give high values
Express it in %; write the number only.

# input Can you share its growth inhibition? I mean this molecule: C=CCOc1ccc(C(=O)Nc2nonc2-c2ccc(OC)c(OC)c2)cc1
# output 91

# input Can you share its growth inhibition? I mean this molecule: C#CCNCc1ccc(-c2ccc(-c3nc4ccc(C(F)(F)F)cc4[nH]3)s2)cc1
# output 28

# input Can you share its growth inhibition? I mean this molecule: Fc1ccc2nc(-c3ccc(-c4cccc(CN5CCN(c6ccncc6)CC5)c4)cc3)[nH]c2c1
# output 101

# input Can you share its growth inhibition? I mean this molecule: C#CCCOc1ccc2ccccc2c1CNCCCCCCNCc1c(OCCC#C)ccc2ccccc12
# output 65

# input Can you share its growth inhibition? I mean this molecule: O=C(Nc1ccc(S(=O)(=O)N2CCCC2)cc1)c1cc(-c2cccnc2)nc2ccc(Cl)cc12
# output 95

# input Can you share its growth inhibition? I mean this molecule: Oc1ccc(-c2nc3c(N4CCN(Cc5ccccc5)CC4)cccc3n2C2CCNCC2)cc1
# output 7

# input Can you share its growth inhibition? I mean this molecule: c1ccc(CCNc2nc(NCC(c3ccccc3)c3ccccc3)c3[nH]cnc3n2)cc1
# output 95

# input Can you share its growth inhibition? I mean this molecule: S=c1nc(-c2ccccc2)n2ccsc2n1
# output 0

###

# Measurement Description: antimalarial activity against Dd2 strain (AID 2302);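 also: 0% = DMSO untreated growth and 100% = chloroquine plus artemisinin killed control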
# Assay Conditions: P. falciparum Dd2 in RBCs, LDH growth readout, 72 h; at 2 µM
Calls of active or inactive are those of the source.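 How the source made its calls: active means growth inhibition above 50% at the single 2 µM test dose, taken to imply half-maximal potency below 2 µM; inactive means the rest.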
// allowed return values: active, inactive

# input Give the logged outcome of this assay for the following molecule: O=C(Nc1cccc(-c2ccc(-c3nc4ccccc4[nH]3)cc2)c1)c1csnn1
# output inactive

# input Give the logged outcome of this assay for the following molecule: Cc1ccc(C)c(NC(=O)CC2C(=O)N(c3ccccc3)C(=S)N2Cc2ccco2)c1 (centres undefined)
# output active

# input Give the logged outcome of this assay for the following molecule: Oc1ccc(CCNCCCCCCNCCc2ccc(Cl)cc2)c(Cl)c1O
# output inactive

# input Give the logged outcome of this assay for the following molecule: O=C(Cn1c(CCc2cccc(F)c2F)nc(=O)c2ccccc21)N(CCN1CCCCC1)Cc1ccc(-c2ccc(C(F)(F)F)cc2)cc1
# output active

# input Give the logged outcome of this assay for the following molecule: Cc1noc(C)c1-c1ccc2c(Nc3ccc(C#N)cc3)c(C(N)=O)cnc2c1
# output active

# input Give the logged outcome of this assay for the following molecule: C=CCc1cccc(CN2CCC(c3cc(=O)[nH]c(-c4ccccn4)n3)CC2)c1O
# output active

# input Give the logged outcome of this assay for the following molecule: CC(=O)Nc1ccc(CN2CCC(NC(=O)c3cc(-c4ccc(N(C)C)cc4)cs3)C2)cc1 (centres undefined)
# output inactive

# input Give the logged outcome of this assay for the following molecule: CCN(CC)CCN(Cc1ccc(-c2ccc(C(F)(F)F)cc2)cc1)C(=O)Cn1c(CCc2cccc(C#N)c2)nc(=O)c2ccccc21
# output inactive

# input Give the logged outcome of this assay for the following molecule: FC(F)(F)c1cccc2c(NN=Cc3ccccc3)ccnc12
# output active

# input Give the logged outcome of this assay for the following molecule: COc1cccc(Nc2nccc(NCC(O)c3cccc(C(F)(F)F)c3)n2)c1 (centres undefined)
# output inactive

# input Give the logged outcome of this assay for the following molecule: Oc1ccc2c(c1NCC1CCCCC1)CCCC2
# output active

# input Give the logged outcome of this assay for the following molecule: CS(=O)(=O)NCCCNCc1cccc(-c2ccc(-c3nc4ccc(C(F)(F)F)cc4[nH]3)cc2)c1
# output active

# input Give the logged outcome of this assay for the following molecule: CN1CCN(Cc2ccc(-c3ccc4c(Nc5ccc(F)cc5Cl)ccnc4c3)o2)CC1
# output active

# input Give the logged outcome of this assay for the following molecule: NCC1CCCN1Cc1cccc(-c2ccc(-c3nc4ccc(C(F)(F)F)cc4[nH]3)cc2)c1 (centres undefined)
# output active

# input Give the logged outcome of this assay for the following molecule: CCCCCCNCc1c(O)ccc2c(CNCCCCCC)c(O)ccc12
# output active

# input Give the logged outcome of this assay for the following molecule: COc1cccc(C(=O)Nc2nonc2-c2ccc(OC)c(OC)c2)c1
# output active

# input Give the logged outcome of this assay for the following molecule: Cc1cc2c(/C=C/C(=O)NC3CCC(CCN4CCc5ccc(C#N)cc5CC4)CC3)cccc2[nH]1 (centres undefined)
# output inactive

# input Give the logged outcome of this assay for the following molecule: Cc1cc(NN=Cc2ccccc2)c2cc(F)ccc2n1
# output active

# input Give the logged outcome of this assay for the following molecule: NC(N)=Nc1nc(-c2cccc(NC(=O)NCc3cccc4ccccc34)c2)cs1
# output inactive

# input Give the logged outcome of this assay for the following molecule: O=S(=O)(Nc1ccc(CCN2CCC(N3CCCCC3)CC2)cc1)c1ccccc1C(F)(F)F
# output inactive

# input Give the logged outcome of this assay for the following molecule: Cc1cccc2[nH]c(-c3cccc(-c4cccc(NC(=O)CC5NC(=O)c6ccccc65)c4)c3)nc12 (centres undefined)
# output inactive

# input Give the logged outcome of this assay for the following molecule: COc1ccc(C2C(C(=O)Nc3ccc4c(c3)OCO4)c3cc(OC)c(OC)cc3C(=O)N2C)cc1 (centres undefined)
# output active

# input Give the logged outcome of this assay for the following molecule: CCCCNc1cc(C)nc(NCc2ccccc2)n1
# output inactive

# input Give the logged outcome of this assay for the following molecule: O=C(Nc1ccc(SC(F)(F)F)cc1)Nc1ccc(Cl)c(Cl)c1
# output active
